Assay: Water solubility of compound at pH 7 incubated for 2 hrs by HPLC analysis
Type: physicochemical
reported_endpoint: solubility at 2 h (µg/mL)
Number in µg/mL, nothing else.

# substance_smiles, solubility at 2 h [µg/mL]
records = [
    ("Oc1ccc(-c2cnc3nnc(SCc4ccncc4)n3n2)cc1", 3.6),
]

Shifting focus to the compound that follows.
Specify solubility at 2 h for "Oc1ccc(-c2cnc3nnc(NCc4ccncc4)n3n2)cc1" and stop. 203

###

A short record of pIC50 observed with ALK tyrosine kinase receptor (Homo sapiens, UniProt Q9UM73) follows.
Sequence (Q9UM73 whole entry): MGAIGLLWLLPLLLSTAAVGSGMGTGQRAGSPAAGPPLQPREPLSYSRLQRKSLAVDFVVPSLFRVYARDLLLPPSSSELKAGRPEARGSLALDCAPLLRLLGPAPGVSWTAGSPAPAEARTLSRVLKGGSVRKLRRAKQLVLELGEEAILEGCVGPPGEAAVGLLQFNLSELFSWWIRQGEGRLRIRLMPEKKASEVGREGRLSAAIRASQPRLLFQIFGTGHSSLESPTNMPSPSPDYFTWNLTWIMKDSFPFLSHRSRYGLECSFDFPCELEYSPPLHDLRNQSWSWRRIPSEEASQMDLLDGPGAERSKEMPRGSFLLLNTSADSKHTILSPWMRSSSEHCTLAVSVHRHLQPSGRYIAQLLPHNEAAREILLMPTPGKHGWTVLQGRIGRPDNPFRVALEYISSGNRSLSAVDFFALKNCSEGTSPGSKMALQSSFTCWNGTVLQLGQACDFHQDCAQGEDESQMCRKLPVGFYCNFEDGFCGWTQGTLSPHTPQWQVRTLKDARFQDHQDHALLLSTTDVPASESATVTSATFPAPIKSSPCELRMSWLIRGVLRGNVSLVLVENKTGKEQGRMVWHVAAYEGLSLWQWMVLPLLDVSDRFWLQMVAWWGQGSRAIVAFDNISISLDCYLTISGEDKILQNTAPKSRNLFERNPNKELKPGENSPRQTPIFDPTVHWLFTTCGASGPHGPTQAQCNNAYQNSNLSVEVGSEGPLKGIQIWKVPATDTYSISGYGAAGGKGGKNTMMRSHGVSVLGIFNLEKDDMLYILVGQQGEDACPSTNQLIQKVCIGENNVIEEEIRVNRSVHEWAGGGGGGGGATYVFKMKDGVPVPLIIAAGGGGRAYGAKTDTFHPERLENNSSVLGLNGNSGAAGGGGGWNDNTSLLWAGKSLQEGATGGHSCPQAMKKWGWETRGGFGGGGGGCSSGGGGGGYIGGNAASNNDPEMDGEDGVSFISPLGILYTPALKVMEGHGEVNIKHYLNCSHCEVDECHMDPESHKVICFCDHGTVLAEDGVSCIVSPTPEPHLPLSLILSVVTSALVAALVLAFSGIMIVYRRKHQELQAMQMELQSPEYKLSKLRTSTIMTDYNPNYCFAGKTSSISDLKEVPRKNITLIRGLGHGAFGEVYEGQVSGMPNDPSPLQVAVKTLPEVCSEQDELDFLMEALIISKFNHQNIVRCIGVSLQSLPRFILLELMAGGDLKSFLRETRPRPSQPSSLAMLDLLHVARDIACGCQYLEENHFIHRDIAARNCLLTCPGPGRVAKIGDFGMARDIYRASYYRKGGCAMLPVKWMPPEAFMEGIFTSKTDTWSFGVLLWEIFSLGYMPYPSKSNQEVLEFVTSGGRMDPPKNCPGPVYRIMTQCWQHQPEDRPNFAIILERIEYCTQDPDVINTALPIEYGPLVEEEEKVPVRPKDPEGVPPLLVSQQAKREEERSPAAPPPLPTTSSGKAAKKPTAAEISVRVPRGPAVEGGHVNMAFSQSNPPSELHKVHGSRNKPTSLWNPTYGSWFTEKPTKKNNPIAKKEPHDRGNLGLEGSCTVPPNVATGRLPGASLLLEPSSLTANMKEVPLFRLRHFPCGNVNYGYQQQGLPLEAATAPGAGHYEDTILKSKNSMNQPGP
// pIC50 is dimensionless: -log10 of concentration (M)

# substance_smiles, numeric_readout
records = [
    ("Clc1ccc(-c2cn3cccc(COc4nnc5ccc(Cl)nn45)c3n2)c(Cl)c1", 4.87),
]

Let us move to another entry and its pIC50.
Provide the reported pIC50 (system: ALK tyrosine kinase receptor (Homo sapiens, UniProt Q9UM73)) for "Clc1ccc(Cl)c(-c2cn3cccc(COc4nnc5ccc(Cl)nn45)c3n2)c1" 4.95

###

Molecular target: Hepatocyte growth factor receptor (Homo sapiens)
Sequence (P08581 whole entry): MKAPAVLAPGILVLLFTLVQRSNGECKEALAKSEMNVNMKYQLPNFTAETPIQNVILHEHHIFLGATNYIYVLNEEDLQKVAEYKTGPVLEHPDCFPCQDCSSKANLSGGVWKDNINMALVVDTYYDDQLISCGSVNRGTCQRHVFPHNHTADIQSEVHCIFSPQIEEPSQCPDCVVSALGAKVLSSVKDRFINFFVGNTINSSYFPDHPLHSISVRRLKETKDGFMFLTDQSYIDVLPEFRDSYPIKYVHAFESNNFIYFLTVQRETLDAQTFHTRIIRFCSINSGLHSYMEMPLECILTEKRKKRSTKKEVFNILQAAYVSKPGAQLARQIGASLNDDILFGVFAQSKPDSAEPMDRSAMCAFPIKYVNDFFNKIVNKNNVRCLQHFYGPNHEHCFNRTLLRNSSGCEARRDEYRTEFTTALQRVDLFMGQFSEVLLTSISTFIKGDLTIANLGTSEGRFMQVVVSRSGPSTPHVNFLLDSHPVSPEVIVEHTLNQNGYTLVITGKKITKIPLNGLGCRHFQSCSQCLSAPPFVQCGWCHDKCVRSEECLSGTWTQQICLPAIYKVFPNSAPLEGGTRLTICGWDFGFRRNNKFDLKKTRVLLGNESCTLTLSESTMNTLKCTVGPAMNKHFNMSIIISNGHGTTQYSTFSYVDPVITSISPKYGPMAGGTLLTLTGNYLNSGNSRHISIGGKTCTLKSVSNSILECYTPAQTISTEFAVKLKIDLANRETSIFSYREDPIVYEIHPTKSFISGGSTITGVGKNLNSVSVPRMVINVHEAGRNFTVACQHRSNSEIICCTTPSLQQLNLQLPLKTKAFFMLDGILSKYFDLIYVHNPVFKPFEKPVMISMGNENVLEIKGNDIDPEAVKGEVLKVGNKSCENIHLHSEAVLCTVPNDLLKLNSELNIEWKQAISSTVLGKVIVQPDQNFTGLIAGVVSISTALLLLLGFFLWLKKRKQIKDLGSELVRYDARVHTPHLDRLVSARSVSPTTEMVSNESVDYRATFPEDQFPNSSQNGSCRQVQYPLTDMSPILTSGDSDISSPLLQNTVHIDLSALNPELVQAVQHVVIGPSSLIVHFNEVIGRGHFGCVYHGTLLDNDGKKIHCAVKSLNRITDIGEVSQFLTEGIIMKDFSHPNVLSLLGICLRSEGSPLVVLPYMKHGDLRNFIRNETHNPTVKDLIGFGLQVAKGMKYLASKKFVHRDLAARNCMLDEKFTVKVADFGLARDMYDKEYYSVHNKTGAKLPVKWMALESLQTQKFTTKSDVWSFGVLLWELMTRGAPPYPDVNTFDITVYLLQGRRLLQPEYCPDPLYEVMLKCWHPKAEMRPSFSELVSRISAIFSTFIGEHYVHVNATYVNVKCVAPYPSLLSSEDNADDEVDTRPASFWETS
Experiment: Inhibition of c-MET (unknown origin) using poly (Glu,Tyr) 4:1 as substrate incubated for 30 mins by ADP-Glo reagent based analysis
The compounds listed here are annotated with their pIC50.
# log scale: pIC50 equals minus log10 of the concentration in mol/L

For orientation, consider the following solved cases.
# substance_smiles, assay_target, pIC50
measured = [
    ("Oc1ccc(-c2cnc3nnc(NCc4ccncc4)n3n2)cc1", "Hepatocyte growth factor receptor (Homo sapiens)", 7.28),
    ("Cc1ccc(-c2cnc3nnc(SCc4ccncc4)n3n2)cc1", "Hepatocyte growth factor receptor (Homo sapiens)", 8.34),
    ("Brc1ccc(-c2cnc3nnc(SCc4cccnc4)n3n2)cc1", "Hepatocyte growth factor receptor (Homo sapiens)", 8.19),
]

Next up:
Report measured pIC50; entry is "Cc1ccc(-c2cnc3nnc(SCc4cccnc4)n3n2)cc1" 8.25

###

Experiment: Antiproliferative activity against mouse BaF3/TRP-Met cells assessed as reduction in cell growth incubated for 72 hrs by SRB assay
Settings: BaF3, 72 h
reported_endpoint: pIC50
To interpret pIC50, take it as minus log10 of a concentration measured in moles per litre.

// Input: "COc1ccc2c(OCc3nnc4ncc(-c5ccccc5)nn34)ccnc2c1" . Output its pIC50 only. 7.63

// data source = ChEMBL document CHEMBL6109043
